# testedTarget: T1, TNFR1 (Homo sapiens, UniProt P19438)
# T1 chain: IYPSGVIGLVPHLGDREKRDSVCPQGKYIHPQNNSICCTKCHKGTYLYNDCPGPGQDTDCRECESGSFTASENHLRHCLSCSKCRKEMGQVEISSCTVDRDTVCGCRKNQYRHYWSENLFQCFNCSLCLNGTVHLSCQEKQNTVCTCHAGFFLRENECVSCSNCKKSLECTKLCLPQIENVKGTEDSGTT
# procedureSummary: yeast display SC50
# cutoff 1 nM applies to apparent Kd (screen); >= gives met, < gives not met

binder	assignedClass
E104P (designed binder) SMEEEVEKAAKEYEKKKKEAIEKHLEKLKAKDKEAAERFLKELEEAAKEYAKDEAKTMSEEEAKRRAKKYKEKVLLSELSEEEQKEIKEAEEKLVRTILKYVEPAAK	not met
T57N (designed binder) SMEEEVEKAAKEYEKKKKEAIEKHLEKLKAKDKEAAERFLKELEEAAKEYAKDEAKNMSEEEAKRRAKKYKEKVLLSELSEEEQKEIKEAEEKLVRTILKYVEEAAK	met
V74H (designed binder) SMEEEVEKAAKEYEKKKKEAIEKHLEKLKAKDKEAAERFLKELEEAAKEYAKDEAKTMSEEEAKRRAKKYKEKHLLSELSEEEQKEIKEAEEKLVRTILKYVEEAAK	met
Y70C (designed binder) SMEEEVEKAAKEYEKKKKEAIEKHLEKLKAKDKEAAERFLKELEEAAKEYAKDEAKTMSEEEAKRRAKKCKEKVLLSELSEEEQKEIKEAEEKLVRTILKYVEEAAK	met
S77W (designed binder) SMEEEVEKAAKEYEKKKKEAIEKHLEKLKAKDKEAAERFLKELEEAAKEYAKDEAKTMSEEEAKRRAKKYKEKVLLWELSEEEQKEIKEAEEKLVRTILKYVEEAAK	met
L99W (designed binder) SMEEEVEKAAKEYEKKKKEAIEKHLEKLKAKDKEAAERFLKELEEAAKEYAKDEAKTMSEEEAKRRAKKYKEKVLLSELSEEEQKEIKEAEEKLVRTIWKYVEEAAK	met
K48F (designed binder) SMEEEVEKAAKEYEKKKKEAIEKHLEKLKAKDKEAAERFLKELEEAAFEYAKDEAKTMSEEEAKRRAKKYKEKVLLSELSEEEQKEIKEAEEKLVRTILKYVEEAAK	not met
S59V (designed binder) SMEEEVEKAAKEYEKKKKEAIEKHLEKLKAKDKEAAERFLKELEEAAKEYAKDEAKTMVEEEAKRRAKKYKEKVLLSELSEEEQKEIKEAEEKLVRTILKYVEEAAK	met
